System: adrenal angiotensin II receptors
Experiment: Displacement of radiolabelled ligand [^125 I]-SIAII specifically bound to rat adrenal angiotensin II receptors
Assay type: binding
Conditions: 1E-5M, rat adrenal homogenate, 60 min at 25° C., 10 µM
assayReadout: % displacement of the labelled ligand (%)

molecule | targetUnderTest | % displacement of the labelled ligand, %
CCCc1nc(C)n2c(S)nnc2c1Cc1ccc(-c2ccccc2-c2nnn[nH]2)cc1 [Example 68] | adrenal angiotensin II receptors | 67
CCCCc1nc(C)n2c(=O)[nH]nc2c1Cc1ccc(-c2ccccc2-c2nnn[nH]2)cc1 [Example 36] | adrenal angiotensin II receptors | 65
CCCc1nc(C)n2nc(CC(=O)OCC)nc2c1Cc1ccc(-c2ccccc2-c2nnn[nH]2)cc1 [Example 146] | adrenal angiotensin II receptors | 74
CCCc1nc(C)n2c(=O)n(CCO)nc2c1Cc1ccc(-c2ccccc2-c2nnn[nH]2)cc1 [Example 25] | adrenal angiotensin II receptors | 68
CCCc1nc(C)n2nc(NC)nc2c1Cc1ccc(-c2ccccc2-c2nnn[nH]2)cc1 [Example 80] | adrenal angiotensin II receptors | 74
CCCc1nc(C)n2nc(C)nc2c1Cc1ccc(-c2ccccc2-c2nnn[nH]2)cc1 [Example 74] | adrenal angiotensin II receptors | 69
CCCc1nc(C)n2nc(C(=O)OCC)nc2c1Cc1ccc(-c2ccccc2-c2nnn[nH]2)cc1 [Example 109] | adrenal angiotensin II receptors | 67
CCCc1nc(C)n2ncnc2c1Cc1ccc(-c2ccccc2-c2nnn[nH]2)cc1 [Example 71] | adrenal angiotensin II receptors | 73
CCc1nc(C)n2[nH]c(=O)nc2c1Cc1ccc(-c2ccccc2-c2nnn[nH]2)cc1 [Example 97] | adrenal angiotensin II receptors | 60
CCc1nc(C)n2nc(C)nc2c1Cc1ccc(-c2ccccc2-c2nn[nH]n2)cc1 [Example 90] | adrenal angiotensin II receptors | 63
